Values compiled from patent US5583123A.

Target: Endothelin converting enzyme (ECE) (Sus scrofa, UniProt A0A8W4FBH0)
Construct: partially purified from porcine primary aortic endothelial cells; endogenous in cells
Sequence (A0A8W4FBH0 1-751): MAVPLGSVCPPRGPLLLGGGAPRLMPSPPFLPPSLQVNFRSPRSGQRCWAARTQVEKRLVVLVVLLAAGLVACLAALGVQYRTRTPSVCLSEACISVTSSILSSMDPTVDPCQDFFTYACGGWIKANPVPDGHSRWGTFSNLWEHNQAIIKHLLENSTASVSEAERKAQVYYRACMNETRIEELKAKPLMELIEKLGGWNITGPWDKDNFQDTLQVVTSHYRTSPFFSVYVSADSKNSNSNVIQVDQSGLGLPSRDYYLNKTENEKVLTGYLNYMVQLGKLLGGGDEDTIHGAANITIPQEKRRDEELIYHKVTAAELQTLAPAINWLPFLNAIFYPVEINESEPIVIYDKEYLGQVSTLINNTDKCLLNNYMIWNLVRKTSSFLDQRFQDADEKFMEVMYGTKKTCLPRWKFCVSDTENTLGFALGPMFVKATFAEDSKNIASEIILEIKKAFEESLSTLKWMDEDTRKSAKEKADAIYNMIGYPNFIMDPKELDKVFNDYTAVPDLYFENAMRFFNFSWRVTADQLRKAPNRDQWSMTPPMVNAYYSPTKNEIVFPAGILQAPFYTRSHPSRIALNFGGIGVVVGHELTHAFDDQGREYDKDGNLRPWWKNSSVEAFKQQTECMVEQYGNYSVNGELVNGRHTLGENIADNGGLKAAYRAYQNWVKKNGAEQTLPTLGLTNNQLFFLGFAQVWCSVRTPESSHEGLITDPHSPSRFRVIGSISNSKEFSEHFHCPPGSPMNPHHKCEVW
Test: in vitro assay for endothelin converting enzyme inhibition (radioimmunoassay of ET-1 formed from big ET-1)
Details: ECE partially purified from porcine primary aortic endothelial cells; pH 7.4 buffer
readout.label: IC50

Bench note: what IC50 did O=P(O)(O)C(CCc1cccc2ccccc12)N[C@@H](Cc1ccc(-c2ccccc2)cc1)c1nnn[nH]1 (single isomer, unassigned) [1 (a)] show?
~370 nM
